molecular target: CDK4/cyclin D3 (Homo sapiens); construct: purchased Carna Biosciences, Inc. QS S Assist CDK4/Cyclin D3_FP Kit; assay: Human CDK4/cyclin D3 inhibitory activity (QS S Assist CDK4/Cyclin D3_FP Kit, IMAP fluorescence polarization); format: biochemical; details: 50% inhibitory concentration against CDK4/cyclin D3, given as class symbol
Sequence (P11802 whole entry): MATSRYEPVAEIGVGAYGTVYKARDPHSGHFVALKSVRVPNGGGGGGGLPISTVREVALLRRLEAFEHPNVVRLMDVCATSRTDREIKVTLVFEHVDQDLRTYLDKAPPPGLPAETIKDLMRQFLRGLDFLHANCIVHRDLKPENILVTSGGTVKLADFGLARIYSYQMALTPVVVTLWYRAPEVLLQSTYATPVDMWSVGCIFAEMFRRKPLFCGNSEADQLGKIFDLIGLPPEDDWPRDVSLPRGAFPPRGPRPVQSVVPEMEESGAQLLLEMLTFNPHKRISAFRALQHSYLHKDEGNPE
Sequence (P30281 whole entry partner): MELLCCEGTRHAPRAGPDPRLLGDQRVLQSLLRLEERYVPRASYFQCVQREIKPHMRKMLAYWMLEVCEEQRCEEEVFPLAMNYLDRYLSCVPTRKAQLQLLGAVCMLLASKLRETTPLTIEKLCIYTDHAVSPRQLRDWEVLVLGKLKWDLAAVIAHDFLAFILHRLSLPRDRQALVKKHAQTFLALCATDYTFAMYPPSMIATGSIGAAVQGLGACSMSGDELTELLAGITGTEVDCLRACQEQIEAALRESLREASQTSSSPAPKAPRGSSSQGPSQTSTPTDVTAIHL
MEASURED ENDPOINT: IC50

Kindly note the recorded IC50 for CNC1CCCC1Oc1ccc(Nc2ncc3cc(C(C)O)nc(NC(C)C)c3n2)nc1 (centres unmarked) [Compound 799] , which is < 10 nM

Per the records, this molecule ( CO[C@H](C)c1cc2cnc(Nc3ccc(CN4CCN(C(C)(C)C(=O)O)CC4)cn3)nc2c(NC(C)C)n1 ) has IC50 equal to 10 to 100 nM

Looking up CC(C)Nc1nc([C@@H](C)O)cc2cnc(Nc3ccc(N4CCC(C(=O)O)CC4)cn3)nc12 , I found its IC50 recorded as 10 to 100 nM

Per the record, O=C(O)C1CCN(Cc2ccc(Nc3ncc4cc(C(F)F)nc(NCC5CC5)c4n3)nc2)CC1 has IC50 of 10 to 100 nM

Reported IC50 for C[C@@H](O)c1cc2cnc(Nc3ccc4c(n3)CCN(CCN(C)C)C4)nc2c(N[C@H]2CCCOC2)n1 was < 10 nM

Given item Cc1nc(Nc2ncc3cc([C@@H](C)O)nc(NC4CCC4)c3n2)ccc1N1CCNCC1 , the value recorded as its IC50 is < 10 nM

Input C[C@@H](O)c1cc2cnc(Nc3ccc(CN4CCC(O)CC4)cn3)nc2c(NCC2CCOCC2)n1 . Output IC50: < 10 nM

# IC50 of CC(C)Nc1nc(C2CCCO2)cc2cnc(Nc3ccc(N4CCNCC4=O)cn3)nc12 (centres unmarked) [Compound 670] = ≥ 100 nM

The reported measurements were obtained from patent US10124004B2.
